A short record of IC50 observed with EGFR^wt (Homo sapiens, UniProt P00533) follows.
Sequence (P00533 25-1210): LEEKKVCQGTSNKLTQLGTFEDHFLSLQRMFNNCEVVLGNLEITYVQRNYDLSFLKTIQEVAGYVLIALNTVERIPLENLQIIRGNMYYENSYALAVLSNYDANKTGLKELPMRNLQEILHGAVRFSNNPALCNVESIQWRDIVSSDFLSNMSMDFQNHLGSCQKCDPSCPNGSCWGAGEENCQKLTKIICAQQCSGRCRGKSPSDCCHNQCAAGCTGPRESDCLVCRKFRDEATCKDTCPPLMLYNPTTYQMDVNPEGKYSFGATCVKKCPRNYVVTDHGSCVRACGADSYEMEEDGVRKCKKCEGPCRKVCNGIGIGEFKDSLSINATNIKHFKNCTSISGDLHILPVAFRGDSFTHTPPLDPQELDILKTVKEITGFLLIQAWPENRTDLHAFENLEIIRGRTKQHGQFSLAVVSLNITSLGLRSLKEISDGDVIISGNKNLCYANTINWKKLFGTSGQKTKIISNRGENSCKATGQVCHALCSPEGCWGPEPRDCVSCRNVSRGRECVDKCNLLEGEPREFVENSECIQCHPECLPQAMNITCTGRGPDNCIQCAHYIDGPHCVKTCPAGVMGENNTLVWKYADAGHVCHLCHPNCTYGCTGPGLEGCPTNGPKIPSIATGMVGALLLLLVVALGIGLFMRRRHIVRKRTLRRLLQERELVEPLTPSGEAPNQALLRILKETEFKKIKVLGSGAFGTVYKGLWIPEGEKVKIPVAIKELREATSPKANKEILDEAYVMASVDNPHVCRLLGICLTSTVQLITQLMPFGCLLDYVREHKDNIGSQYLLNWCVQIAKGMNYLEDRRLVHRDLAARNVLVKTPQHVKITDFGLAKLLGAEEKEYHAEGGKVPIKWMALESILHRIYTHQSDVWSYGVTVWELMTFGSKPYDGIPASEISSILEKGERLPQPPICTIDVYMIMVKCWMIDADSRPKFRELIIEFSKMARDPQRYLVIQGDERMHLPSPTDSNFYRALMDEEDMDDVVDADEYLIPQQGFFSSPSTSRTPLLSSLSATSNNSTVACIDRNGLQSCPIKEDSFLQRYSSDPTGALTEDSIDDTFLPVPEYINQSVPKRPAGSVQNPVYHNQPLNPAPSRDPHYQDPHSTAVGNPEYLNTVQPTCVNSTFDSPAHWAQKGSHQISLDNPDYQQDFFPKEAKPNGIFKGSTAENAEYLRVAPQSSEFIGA

>  <smiles notation>
Cc1ccc(NC(=O)/C=C/CN(C)C)cc1Nc1ncc(Br)c(Nc2ccc3ccccc3c2)n1

>  <result unit>
nM

>  <IC50>
4480

$$$$
>  <smiles notation>
COc1ccc(NC(=O)/C=C/CN(C)C)cc1Nc1ncc(C#N)c(Nc2ccc3ccccc3c2)n1

>  <result unit>
nM

>  <IC50>
173

$$$$
>  <smiles notation>
Cc1ccc(Nc2ncc(Cl)c(Nc3ccc4ccccc4c3)n2)cc1NC(=O)/C=C/CN(C)C

>  <result unit>
nM

>  <IC50>
1150

$$$$
>  <smiles notation>
COc1ccc(NC(=O)/C=C/CN(C)C)cc1Nc1ncc(Cl)c(Nc2ccc3ccccc3c2)n1

>  <result unit>
nM

>  <IC50>
260

$$$$
>  <smiles notation>
CCOc1ccc(NC(=O)/C=C/CN(C)C)cc1Nc1ncc(Cl)c(Nc2ccc3ccccc3c2)n1

>  <result unit>
nM

>  <IC50>
1460

$$$$
>  <smiles notation>
COc1ccc(NC(=O)/C=C/CN(C)C)cc1Nc1ncc(Cl)c(Nc2ccc3[nH]ccc3c2)n1

>  <result unit>
nM

>  <IC50>
295

$$$$
>  <smiles notation>
C=CC(=O)Nc1cc(Nc2ncc(Cl)c(Nc3ccc4ccccc4c3)n2)c(OC)cc1N1CCCN(C)CC1

>  <result unit>
nM

>  <IC50>
31.7

$$$$
>  <smiles notation>
COc1ccc(NC(=O)/C=C/CN(C)C)cc1Nc1ncc(Cl)c(Nc2ccc3ncccc3c2)n1

>  <result unit>
nM

>  <IC50>
615

$$$$

Entry source: patent US10059694B2
